# TARGET_UNDER_TEST: DLL4 (human, UniProt Q9NR61)
# Sequence (Q9NR61 27-524): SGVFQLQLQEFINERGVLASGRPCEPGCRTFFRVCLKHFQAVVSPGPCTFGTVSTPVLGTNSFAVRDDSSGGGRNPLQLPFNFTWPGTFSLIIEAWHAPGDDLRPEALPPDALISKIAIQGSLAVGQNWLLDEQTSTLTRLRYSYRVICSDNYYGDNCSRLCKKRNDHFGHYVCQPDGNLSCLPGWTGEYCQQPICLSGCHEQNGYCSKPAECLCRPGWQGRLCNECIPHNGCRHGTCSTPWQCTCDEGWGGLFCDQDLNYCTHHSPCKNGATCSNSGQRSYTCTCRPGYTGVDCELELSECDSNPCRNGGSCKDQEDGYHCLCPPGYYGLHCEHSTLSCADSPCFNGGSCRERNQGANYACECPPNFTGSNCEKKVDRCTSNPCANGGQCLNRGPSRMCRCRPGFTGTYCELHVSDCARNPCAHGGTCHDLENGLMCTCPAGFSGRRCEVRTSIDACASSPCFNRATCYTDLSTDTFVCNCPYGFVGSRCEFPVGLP
# ASSAY_PROTOCOL: ELISA
OBSERVATION_TYPE: pEC50
Scale: negative log10 of molar concentration, which is what pEC50 denotes.

BINDER	pEC50
DVD489 DLL4 arm (antibody, V domains shown, DVD-Ig outer) VH: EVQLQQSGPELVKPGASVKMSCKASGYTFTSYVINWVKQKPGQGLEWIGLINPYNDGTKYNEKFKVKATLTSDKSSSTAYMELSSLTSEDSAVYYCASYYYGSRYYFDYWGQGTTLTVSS VL: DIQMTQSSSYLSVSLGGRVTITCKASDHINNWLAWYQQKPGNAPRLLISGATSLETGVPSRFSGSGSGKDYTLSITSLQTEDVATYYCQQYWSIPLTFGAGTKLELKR	9.21

Supply recorded pEC50 for DVD444 DLL4 arm (antibody, V domains shown, DVD-Ig inner) VH: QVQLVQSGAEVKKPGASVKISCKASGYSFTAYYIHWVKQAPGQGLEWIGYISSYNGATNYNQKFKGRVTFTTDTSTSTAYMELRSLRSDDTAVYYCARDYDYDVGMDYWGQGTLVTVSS VL: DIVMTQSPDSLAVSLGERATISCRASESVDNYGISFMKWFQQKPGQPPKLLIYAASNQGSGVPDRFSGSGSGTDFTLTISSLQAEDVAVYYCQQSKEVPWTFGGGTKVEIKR here.
7.52
